B1: Hairpin Ribozyme (parent)
chain: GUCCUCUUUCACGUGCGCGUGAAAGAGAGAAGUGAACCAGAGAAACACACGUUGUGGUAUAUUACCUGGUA

Variants of: B1
MEASUREMENT DESCRIPTION: self-cleavage, relative activity (ratio to wild type); higher = more cleavage; co-transcriptional

{"columns": ["CHANGES", "self-cleavage"],
 "data": [
  ["C4G U7A", 0.143],
  ["C10U A28G", 0.822],
  ["U7A G32C", 0.143],
  ["G13U G40A", 0.342],
  ["C48U C66G", 0.138],
  ["A23C G56U", 0.1]
]}
